TARGET ENTITY: DPAP1 (Plasmodium falciparum)
ASSAY: primary screen, percent inhibition; higher = more effect of the substance;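 further: 30 min substrate incubation versus DMSO and 10 µM JCP410 controls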
Parameters: species or system P. falciparum D10 trophozoite lysates; single well
The whole screen tested about 110,000 compounds, of which about 230 (0.21%) showed an effect of 50% or more. This is one part of a sample in which strong results are shown more often than they occur.
OUTCOME MEASURE: % Inhibition @ 10 uM (%)
# value in %; strip the unit string

Exercise: Suppose we examine the compound Cc1ccc(S(=O)(=O)N2CCCC2)cc1S(=O)(=O)N1CCCC1 ; what % Inhibition @ 10 uM value has been reported?
Key: 1.52

Exercise: Suppose we examine the compound CC(=O)N/C(=C\c1ccccc1)C(=O)Nc1ccc(Cl)cc1 ; what % Inhibition @ 10 uM value has been reported?
Key: -6.99

Exercise: Suppose we examine the compound c1ccc2c(c1)OCC(c1nnc3sc(-c4ccncc4)nn13)O2 (centres unmarked) ; what % Inhibition @ 10 uM value has been reported?
Key: 2.68

Exercise: Suppose we examine the compound CCc1nn(-c2cc(Oc3ccc(C)cc3)ncn2)c(N)c1C(N)=O ; what % Inhibition @ 10 uM value has been reported?
Key: 60.5

Exercise: Suppose we examine the compound CCc1nnc(NC(=O)CSc2nc(N)nc(SC)c2C#N)s1 ; what % Inhibition @ 10 uM value has been reported?
Key: -1.68

Exercise: Suppose we examine the compound Cc1nnc(NC(=O)CSc2nnc(CNC(=O)c3cccs3)o2)s1 ; what % Inhibition @ 10 uM value has been reported?
Key: -3.39

Exercise: Suppose we examine the compound Clc1ccc(-c2nn3c(C4COc5ccccc5O4)nnc3s2)cc1 (centres unmarked) ; what % Inhibition @ 10 uM value has been reported?
Key: 53.7

Exercise: Suppose we examine the compound COc1ccc(C(=O)NCc2nnc(SCC(=O)Nc3nnc(C)s3)o2)cc1 ; what % Inhibition @ 10 uM value has been reported?
Key: 84

Exercise: Suppose we examine the compound COc1ccccc1-c1nn2c(C3COc4ccccc4O3)nnc2s1 (centres unmarked) ; what % Inhibition @ 10 uM value has been reported?
Key: 7.5

Exercise: Suppose we examine the compound CN(c1ccc(C(=O)Nc2ccc(F)cc2)cc1)S(=O)(=O)c1ccccc1 ; what % Inhibition @ 10 uM value has been reported?
Key: -7.56

Exercise: Suppose we examine the compound Cc1ccc(S(=O)(=O)N2CCCN(S(=O)(=O)c3ccc(C)c(C)c3)CC2)cc1C ; what % Inhibition @ 10 uM value has been reported?
Key: 22.6

Exercise: Suppose we examine the compound O=C(C1CCCC1)N1CCN(C(c2ccccc2)c2ccccc2)CC1 ; what % Inhibition @ 10 uM value has been reported?
Key: 0.795

Exercise: Suppose we examine the compound COc1ccccc1/C=C/c1nn2c(C3COc4ccccc4O3)nnc2s1 (centres unmarked) ; what % Inhibition @ 10 uM value has been reported?
Key: 50.2

Exercise: Suppose we examine the compound Cc1nnc(N2CCC(C(=O)NCCc3ccc(Cl)cc3)CC2)c2nn(-c3ccccc3)c(C)c12 ; what % Inhibition @ 10 uM value has been reported?
Key: 0.58

Exercise: Suppose we examine the compound C/N=C1/S/C(=C\c2ccc(N3Cc4ccccc4C3)cc2)C(=O)N1C ; what % Inhibition @ 10 uM value has been reported?
Key: -5.19

Exercise: Suppose we examine the compound Cc1ccc(Oc2cc(-n3nc(C)c(C(N)=O)c3N)ncn2)cc1 ; what % Inhibition @ 10 uM value has been reported?
Key: -0.795

Exercise: Suppose we examine the compound O=C(/C=C/c1ccco1)c1ccc(F)cc1 ; what % Inhibition @ 10 uM value has been reported?
Key: 14.1

Exercise: Suppose we examine the compound Cc1nn(-c2ccccc2)c2sc(-c3nnc(S)o3)cc12 ; what % Inhibition @ 10 uM value has been reported?
Key: 64.9

Exercise: Suppose we examine the compound COc1ccccc1/C=C/c1nn2c(C)nnc2s1 ; what % Inhibition @ 10 uM value has been reported?
Key: 2.29

Exercise: Suppose we examine the compound COCCCNC(=O)Cc1coc2ccc3ccccc3c12 ; what % Inhibition @ 10 uM value has been reported?
Key: 2.01

Exercise: Suppose we examine the compound CCn1c2ccccc2c2nnc(N3CCC(C)CC3)nc21 ; what % Inhibition @ 10 uM value has been reported?
Key: -3.1

Exercise: Suppose we examine the compound CC(C)CCNC(=O)c1nnc(-c2ccccc2)o1 ; what % Inhibition @ 10 uM value has been reported?
Key: -3.34

Exercise: Suppose we examine the compound CS(=O)(=O)N(CC(=O)Nc1ccc2c(c1)OCCO2)c1cccc(F)c1 ; what % Inhibition @ 10 uM value has been reported?
Key: 69.8

====

Could you please report measured % Inhibition @ 10 uM for the items listed next?
TARGET ENTITY: DPAP1 (Plasmodium falciparum, UniProt Q8IIJ9)
Sequence (Q8IIJ9 whole entry, looked up): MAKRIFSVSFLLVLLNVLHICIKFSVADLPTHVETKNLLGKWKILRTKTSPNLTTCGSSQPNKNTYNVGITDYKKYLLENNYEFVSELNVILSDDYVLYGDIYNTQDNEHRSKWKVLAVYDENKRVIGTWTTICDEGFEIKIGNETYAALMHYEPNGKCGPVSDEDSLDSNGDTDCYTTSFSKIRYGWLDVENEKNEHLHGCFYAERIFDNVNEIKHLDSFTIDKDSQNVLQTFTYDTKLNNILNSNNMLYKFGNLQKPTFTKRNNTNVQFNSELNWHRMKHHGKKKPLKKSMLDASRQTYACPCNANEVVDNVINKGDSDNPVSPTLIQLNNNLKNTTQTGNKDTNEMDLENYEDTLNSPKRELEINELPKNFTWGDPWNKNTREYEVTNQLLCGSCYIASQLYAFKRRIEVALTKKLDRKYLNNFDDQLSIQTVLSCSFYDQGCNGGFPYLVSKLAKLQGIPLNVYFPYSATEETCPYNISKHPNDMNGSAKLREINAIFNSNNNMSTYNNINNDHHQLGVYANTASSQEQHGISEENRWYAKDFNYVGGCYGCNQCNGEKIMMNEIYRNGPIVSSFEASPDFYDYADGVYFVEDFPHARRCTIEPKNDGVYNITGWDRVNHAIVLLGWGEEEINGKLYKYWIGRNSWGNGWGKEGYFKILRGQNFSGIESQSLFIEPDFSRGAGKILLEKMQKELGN
ASSAY: primary screen, percent inhibition; read by cleavage of a fluorogenic dipeptide substrate; higher = more effect of the substance
Parameters: species or system P. falciparum D10 trophozoite lysates; single well
The campaign covered roughly 110,000 compounds. About 230 (0.21%) showed an effect of 50% or more. This excerpt belongs to a sample that is enriched for strong results.
Provide a numeric answer, followed by its unit.

Exercise: Suppose we examine the compound CC(NCC(O)Cn1nnnc1-c1ccccc1)c1ccccc1 (stereo not shown) ; what % Inhibition @ 10 uM value has been reported?
Key: 2.5%

Exercise: Suppose we examine the compound Cc1ccc(C2CC(=O)N3CN(C4CCCCC4)CSC3=C2C#N)cc1 (stereo not shown) ; what % Inhibition @ 10 uM value has been reported?
Key: 25.9%

Exercise: Suppose we examine the compound N#CC1=C2SCN(Cc3ccco3)CN2C(=O)CC1c1cccs1 (stereo not shown) ; what % Inhibition @ 10 uM value has been reported?
Key: 47.7%

Exercise: Suppose we examine the compound Cc1ccc(-c2cc(C(F)F)n3ncc(C(=O)N4CCc5ccccc5C4)c3n2)cc1 ; what % Inhibition @ 10 uM value has been reported?
Key: 0.778%

Exercise: Suppose we examine the compound Cc1ccc(C)c(-c2csc(Nc3ccc(C)c(Cl)c3)n2)c1 ; what % Inhibition @ 10 uM value has been reported?
Key: 0.912%

Exercise: Suppose we examine the compound N#Cc1c(-c2ccccc2)cc(C(F)F)nc1S ; what % Inhibition @ 10 uM value has been reported?
Key: 76.3%

Exercise: Suppose we examine the compound N#Cc1c(-c2ccccc2)cc(-c2ccccc2)c(C#N)c1N ; what % Inhibition @ 10 uM value has been reported?
Key: 0.716%

Exercise: Suppose we examine the compound COc1ccc(-c2cc(-c3ccccc3)nc(S)c2C#N)cc1 ; what % Inhibition @ 10 uM value has been reported?
Key: 43.3%

Exercise: Suppose we examine the compound CC1CC(C)CN(CCCNC(=O)Cn2ncn3nc(-c4cccs4)cc3c2=O)C1 (stereo not shown) ; what % Inhibition @ 10 uM value has been reported?
Key: 2.27%

Exercise: Suppose we examine the compound CCOc1ccc(C2CC(=O)N3CN(C(C)c4ccccc4)CSC3=C2C#N)cc1 (stereo not shown) ; what % Inhibition @ 10 uM value has been reported?
Key: 53.1%

Exercise: Suppose we examine the compound CC(C(=O)O)c1cc(C(=O)c2ccccc2)sc1-c1ccccc1 (stereo not shown) ; what % Inhibition @ 10 uM value has been reported?
Key: 6.08%

Exercise: Suppose we examine the compound COc1cccc(C2CC(=O)N3CN(CCc4sccc4C)CSC3=C2C#N)c1 (stereo not shown) ; what % Inhibition @ 10 uM value has been reported?
Key: 56.9%

Exercise: Suppose we examine the compound N#Cc1c(-c2ccc3c(c2)OCO3)cc(-c2ccccc2)nc1S ; what % Inhibition @ 10 uM value has been reported?
Key: 11.7%

Exercise: Suppose we examine the compound COc1cccc(C2CC(=O)N3CN(C4CCCCC4)CSC3=C2C#N)c1OC (stereo not shown) ; what % Inhibition @ 10 uM value has been reported?
Key: 21.8%

Exercise: Suppose we examine the compound CCOc1ccc(C2CC(=O)N3CN(C4CCCCC4)CSC3=C2C#N)cc1 (stereo not shown) ; what % Inhibition @ 10 uM value has been reported?
Key: 46.6%

Exercise: Suppose we examine the compound COc1ccc(-c2cc(C(=O)N3CCOCC3)c3ccccc3n2)cc1 ; what % Inhibition @ 10 uM value has been reported?
Key: 0.245%

Exercise: Suppose we examine the compound COc1ccc(Br)cc1C1CC(=O)N2CN(C3CCCCC3)CSC2=C1C#N (stereo not shown) ; what % Inhibition @ 10 uM value has been reported?
Key: 60.2%

Exercise: Suppose we examine the compound O=C1NC(=S)NC(=O)C1=Cc1ccccc1OCCO ; what % Inhibition @ 10 uM value has been reported?
Key: -6.17%

Exercise: Suppose we examine the compound Cc1cc(C)c2c(n1)SCC(=O)N2CC(=O)NCc1cccc(Cl)c1 ; what % Inhibition @ 10 uM value has been reported?
Key: -6.01%

Exercise: Suppose we examine the compound COc1cc(C2CC(=O)N3CN(C4CCCCC4)CSC3=C2C#N)ccc1O (stereo not shown) ; what % Inhibition @ 10 uM value has been reported?
Key: -1.28%

Exercise: Suppose we examine the compound COc1ccc(Br)cc1C1CC(=O)N2CN(C)CSC2=C1C#N (stereo not shown) ; what % Inhibition @ 10 uM value has been reported?
Key: 58.8%

Exercise: Suppose we examine the compound CCOC(=O)C1=NNC2C(=O)N(c3ccc(F)cc3)C(=O)C12 (stereo not shown) ; what % Inhibition @ 10 uM value has been reported?
Key: -5.48%

Exercise: Suppose we examine the compound CC(C)CCN1CSC2=C(C#N)C(c3ccc(Cl)cc3)CC(=O)N2C1 (stereo not shown) ; what % Inhibition @ 10 uM value has been reported?
Key: 54.6%

Exercise: Suppose we examine the compound COC(=O)c1cc(OC)c(S(=O)(=O)NCc2ccccc2)cc1OC ; what % Inhibition @ 10 uM value has been reported?
Key: -2.28%

Exercise: Suppose we examine the compound Cc1ccc(-c2cc(C(F)F)n3ncc(C(=O)n4c(C)nc5ccccc54)c3n2)cc1 ; what % Inhibition @ 10 uM value has been reported?
Key: 50%

Exercise: Suppose we examine the compound COc1ccc(/C=C/C(=O)N2c3ccccc3C(C)(c3ccccc3)CC2(C)C)cc1 (stereo not shown) ; what % Inhibition @ 10 uM value has been reported?
Key: 56.6%

Exercise: Suppose we examine the compound OCCN(Cc1ccccc1)CC1CC=CCC1 (stereo not shown) ; what % Inhibition @ 10 uM value has been reported?
Key: 1.38%

Exercise: Suppose we examine the compound Cc1nc2c(c(C)nn2-c2ccccc2)c(C)c1CCC(=O)NCCC(C)C ; what % Inhibition @ 10 uM value has been reported?
Key: 2.57%

Exercise: Suppose we examine the compound CC(c1ccccc1)N1CSC2=C(C#N)C(c3ccc(Cl)cc3)CC(=O)N2C1 (stereo not shown) ; what % Inhibition @ 10 uM value has been reported?
Key: 73.1%

Exercise: Suppose we examine the compound CCc1nccn1C(=O)c1cnn2c(C(F)F)cc(-c3ccccc3)nc12 ; what % Inhibition @ 10 uM value has been reported?
Key: 75.7%

Exercise: Suppose we examine the compound CCC1CCC(NCc2ccncc2)CC1 (stereo not shown) ; what % Inhibition @ 10 uM value has been reported?
Key: -3.42%

Exercise: Suppose we examine the compound Cc1ccc(C2CC(=O)N3CN(C(C)c4ccccc4)CSC3=C2C#N)cc1 (stereo not shown) ; what % Inhibition @ 10 uM value has been reported?
Key: 10.6%

Exercise: Suppose we examine the compound COc1ccc(-c2cc(-c3ccc(OC)cc3)c3c(N)c(C(N)=O)sc3n2)cc1 ; what % Inhibition @ 10 uM value has been reported?
Key: 19.8%

Exercise: Suppose we examine the compound c1cc(CNC2CCCCC2)ccn1 ; what % Inhibition @ 10 uM value has been reported?
Key: 1.84%

Exercise: Suppose we examine the compound O=C(NCc1ccccc1Br)C1CCCN(c2nnc(N3CCCC3=O)s2)C1 (stereo not shown) ; what % Inhibition @ 10 uM value has been reported?
Key: -4.68%

Exercise: Suppose we examine the compound N#Cc1c(-c2ccccc2)cc(C(F)(F)F)nc1S ; what % Inhibition @ 10 uM value has been reported?
Key: 76.9%

Exercise: Suppose we examine the compound Cc1cccc(CN2CCCC(O)C2)c1 (stereo not shown) ; what % Inhibition @ 10 uM value has been reported?
Key: -0.828%

Exercise: Suppose we examine the compound OC1CCCN(Cc2ccc(OC(F)(F)F)cc2)C1 (stereo not shown) ; what % Inhibition @ 10 uM value has been reported?
Key: 1.62%

Exercise: Suppose we examine the compound CCC(Oc1ccccc1)C(=O)Nc1ncccc1Cl (stereo not shown) ; what % Inhibition @ 10 uM value has been reported?
Key: -3.75%

Exercise: Suppose we examine the compound Cc1c(C(=O)Nc2nc3c(s2)CCCC3)oc2ccccc12 ; what % Inhibition @ 10 uM value has been reported?
Key: -2.85%

Exercise: Suppose we examine the compound Cc1oc2c(C)c3oc(=O)c(CC(=O)N4CCOCC4)c(C)c3cc2c1-c1ccccc1 ; what % Inhibition @ 10 uM value has been reported?
Key: 2.54%

Exercise: Suppose we examine the compound COc1cccc(CNC(=O)CNC(=S)N(Cc2ccccc2)Cc2cccnc2)c1 ; what % Inhibition @ 10 uM value has been reported?
Key: -0.406%

Exercise: Suppose we examine the compound O=C(c1ccco1)N1CCN(C2CCC(c3ccccc3)CC2)CC1 (stereo not shown) ; what % Inhibition @ 10 uM value has been reported?
Key: -0.274%

Exercise: Suppose we examine the compound N#CC1=C2SCN(C3CCCC3)CN2C(=O)CC1c1ccc(Cl)cc1 (stereo not shown) ; what % Inhibition @ 10 uM value has been reported?
Key: 55.3%

Exercise: Suppose we examine the compound COc1cc(C2CC(=O)N3CN(Cc4ccco4)CSC3=C2C#N)ccc1O (stereo not shown) ; what % Inhibition @ 10 uM value has been reported?
Key: 17.5%

Exercise: Suppose we examine the compound c1ccc(C2CCC(NCc3ccncc3)CC2)cc1 (stereo not shown) ; what % Inhibition @ 10 uM value has been reported?
Key: 97.8%
